The reported measurements were obtained from paper PMC12608320.

Target: Acetylcholinesterase (AChE) from Electrophorus electricus (Electrophorus electricus, UniProt O42275)
Recorded Metric: pIC50
One number for each entry, as −log10 of the molar value.

Find the recorded pIC50 belonging to O=[N+]([O-])C=Cc1ccccc1 and report it. 3.00

// moving on: another record for pIC50
Tell me the measured pIC50 of O=[N+]([O-])CCc1ccccc1 , please. 2.90

----------
Biological target: acetylcholinesterase from D. melanogaster adults homogenate (Drosophila melanogaster, UniProt P07140)
Test: AChE inhibition (Ellman), D. melanogaster adult homogenate
Procedure: A total of 250 third instar larvae (370.1 mg) and 250 adults (163.8 mg) of A. aegypti, together with 150 adults of D. melanogaster (134.6 mg), were collected. […] These preparations were subsequently used for acetylcholinesterase inhibition activity, total-protein quantification by the BCA method, and calculation of specific catalytic units per individual. Percentage inhibition of AChE was determined by the standard Ellman colorimetric method, with minor adaptations. […]
Recorded Metric: IC50 (mM)
One number for each entry, in mM.

Consider the compound O=[N+]([O-])C=Cc1ccccc1 [NFTENE, 1-Nitro-2-phenylethene] and give its measured IC50. 21
